FYI, the data here is from the supplement of paper PMC10981050.

# Test system: MARIMO
# protocolSummary: cell viability relative to vehicle control; higher = less cytotoxic;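 also: after 48 h exposure read by CellTiter-Glo luminescence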
# condition: 10 µM; SRSF2 genotype: SRSF2 wt/wt
Where a name gives a salt, the structure may show the parent alone.
This listing pairs compounds with measured cell viability.
assayEndpoint: cell viability (%)

| compound | system | quantitativeReadout |
| --- | --- | --- |
| CN(C)CCCN1c2ccccc2Sc2ccc(Cl)cc21 [Chlorpromazine HCl] | MARIMO | 44.1 |
| O=CC[C@@H](O)[C@H](O)[C@H](O)CO [2-Deoxy-D-glucose] | MARIMO | 107 |
| O=C(Nc1ccc(O)cc1)c1ccccc1O [Osalmid] | MARIMO | 95.8 |
| Cc1nn(C)c(COc2ccc(N3CCN(S(=O)(=O)N(C)C)CC3)cc2)c1-c1cccc2c(CCCOc3cccc4ccccc34)c(C(=O)O)n(CCN3CCOCC3)c12 | MARIMO | 107 |
| COc1ccc(Oc2cc(C)c(-c3csc(NC(=O)c4ccncc4)n3)c(C)c2)cc1 | MARIMO | 37.6 |
| CC(=O)N[C@@H](CC(C)C)C(=O)N[C@@H](CC(C)C)C(=O)N[C@H](C=O)CCCNC(=N)N [Leupeptin Hemisulfate] | MARIMO | 97.3 |
| COC(=O)CNC(=O)C(=O)OC | MARIMO | 90.8 |
| CCN1CC(CCN2CCOCC2)C(c2ccccc2)(c2ccccc2)C1=O (centres undefined) [Doxapram HCl] | MARIMO | 111 |
| O=C1NS(=O)(=O)c2ccccc21 [Saccharin] | MARIMO | 101 |
| CC(=O)Oc1ccccc1C(=O)Nc1ncc([N+](=O)[O-])s1 [Nitazoxanide (Alinia, Annita)] | MARIMO | 90.9 |
| CC(C)CN(CC(=O)N1CCN(CC(OCc2ccc3ccccc3c2)c2ccc(Cl)cc2Cl)CC1)CC(C)C (centres undefined) | MARIMO | 43.2 |
| c1cncc(-c2cn[nH]n2)c1 | MARIMO | 96.6 |
| C=C(c1ccc(C(=O)O)cc1)c1cc2c(cc1C)C(C)(C)CCC2(C)C [Bexarotene] | MARIMO | 106 |
| CC(C)=C1CC[C@@H](C)CC1=O [Pulegone] | MARIMO | 95.6 |
| NC(=O)[C@@H]1CCCN1C(=O)[C@H](Cc1c[nH]cn1)NC(=O)[C@@H]1CCC(=O)N1 [Protirelin] | MARIMO | 108 |
| Cc1cc(O)cc(OC2OC(CO)C(O)C(O)C2O)c1 (centres undefined) [Orcinol glucoside] | MARIMO | 104 |
| N#Cc1c(N)nc(NC2CC2)nc1N [Dicyclanil] | MARIMO | 105 |
| COc1nc(N)nc2c1ncn2[C@@H]1O[C@H](CO)[C@@H](O)[C@@H]1O [Nelarabine (Arranon)] | MARIMO | 91.2 |
| COc1ccc(C2CNC(=O)C2)cc1OC1CCCC1 (stereo not drawn) [S-(+)-Rolipram] | MARIMO | 110 |

* * *

# Test system: MARIMO
# protocolSummary: cell viability relative to vehicle control; higher = less cytotoxic
# condition: 10 µM; SRSF2 genotype: SRSF2 P95H/wt
Counter-ions that a name gives are not always drawn.

| compound | cell viability / % |
| --- | --- |
| O=C(O)c1ccc(-n2nc(-c3ccccc3O)nc2-c2ccccc2O)cc1 [Deferasirox (Exjade)] | 60.3 |
| CCOC(=O)[C@H](CCc1ccccc1)N[C@@H](C)C(=O)N1Cc2cc(OC)c(OC)cc2C[C@H]1C(=O)O [Moexipril HCl] | 110 |
| CN(C)CCCC1(c2ccc(F)cc2)OCc2cc(C#N)ccc21 (stereo not drawn) | 94.2 |
| COc1cc(/C=C/C(=O)O)ccc1O | 92.1 |
| COc1ccc(-c2nc(N3CCOCC3)c3sc(CN(C)c4ncc(C(=O)NO)cn4)cc3n2)cn1 | 1.32 |
| Oc1ccc(Cc2nc3c(Cc4ccccc4)nc(-c4ccc(O)cc4)cn3c2O)cc1 | 94.9 |
| COc1cccc(CCc2ccccc2OCC(CN(C)C)OC(=O)CCC(=O)O)c1 (stereo not drawn) [Sarpogrelate hydrochloride] | 84.3 |
| C/C(=C\C(=O)Nc1ccccc1C(=O)O)c1ccc2ccccc2c1 | 84.3 |

* * *

# Tested on: MOLM14
# protocolSummary: cell viability relative to vehicle control; higher = less cytotoxic
# condition: 10 µM; SRSF2 genotype: SRSF2 P95H/wt
Counter-ions that a name gives are not always drawn.
This listing pairs molecules with measured cell viability.

| molecule | cell viability / % |
| --- | --- |
| CC1OC(OC2CCC3(C)C(CCC4(C)C3C=CC3=C5CC(C)(C)CCC5(CO)C(O)CC34C)C2(C)CO)C(O)C(OC2OC(CO)C(O)C(O)C2O)C1O (configuration not stated) | 96.3 |
| Cc1cc(C(=O)NOCCO)c(Nc2ccc(I)cc2F)n(C)c1=O | 43.5 |
| COc1ccc([C@@H]2CC(=O)c3c(O)cc(O[C@@H]4O[C@H](CO[C@@H]5O[C@@H](C)[C@H](O)[C@@H](O)[C@H]5O)[C@@H](O)[C@H](O)[C@H]4O)cc3O2)cc1O | 109 |
| CCCc1nc(C)c2c(=O)[nH]c(-c3cc(S(=O)(=O)N4CCN(CC)CC4)ccc3OCC)nn12 [Vardenafil Hydrochloride Trihydrate (Vivanza] | 105 |
| CCCCCCCCCCCCCCCc1cccc(O)c1C(=O)O | 86.3 |
| OC[C@H]1O[C@@](CO)(O[C@H]2O[C@H](CO)[C@@H](O)[C@H](O)[C@H]2O)[C@@H](O[C@H]2O[C@H](CO)[C@@H](O)[C@H](O)[C@H]2O)[C@@H]1O [D-(+)-Melezitose] | 98.5 |
| CC(C)(Oc1ccc(C2CC2(Cl)Cl)cc1)C(=O)O (configuration not stated) [Ciprofibrate] | 98 |
| C=CCc1cc(OC)c(O)c(C(=O)NCCO)c1 [Alibendol] | 98.2 |
| O=C(/C=C/c1ccc(O)c2c1[C@H](C(=O)O)[C@@H](c1ccc(O)c(O)c1)O2)O[C@H](Cc1ccc(O)c(O)c1)C(=O)O | 104 |
| CC(C)N(CCCCOCC(=O)NS(C)(=O)=O)c1cnc(-c2ccccc2)c(-c2ccccc2)n1 | 97.6 |
| O=NN(CCCl)C(=O)NC1CCCCC1 | 84 |
| CCOC(=O)c1c(C)n(C)c2ccc(O)cc12 [Mecarbinate] | 116 |
| O=C1c2ccc(Nc3ccc(F)cc3F)cc2CCc2ccc(OC[C@H](O)CO)cc21 [Skepinone-L] | 104 |
| C=C(C)[C@@H]1CC[C@]2(C(=O)O[C@@H]3O[C@H](CO[C@@H]4O[C@H](CO)[C@@H](O[C@@H]5O[C@@H](C)[C@H](O)[C@@H](O)[C@H]5O)[C@H](O)[C@H]4O)[C@@H](O)[C@H](O)[C@H]3O)CC[C@]3(C)[C@H](CC[C@@H]4[C@@]5(C)CC[C@H](O[C@@H]6OC[C@H](O)[C@H](O)[C@H]6O[C@@H]6O[C@@H](C)[C@H](O)[C@@H](O)[C@H]6O)[C@@](C)(CO)[C@@H]5CC[C@]43C)[C@@H]12 [Anemoside B4] | 96.9 |
| C[C@H]1[C@H](NC(=O)/C(=N\OC(C)(C)C(=O)O)c2csc(N)n2)C(=O)N1S(=O)(=O)O | 103 |
| O=c1cc(-c2ccccc2)oc2c1ccc1ccccc12 | 117 |
| Cc1ncc([N+](=O)[O-])n1CC(C)O (configuration not stated) | 104 |
| CC[C@]1(O)C[C@H]2CN(CCc3c([nH]c4ccccc34)[C@@](C(=O)OC)(c3cc4c(cc3OC)N(C=O)[C@H]3[C@@](O)(C(=O)OC)[C@H](OC(C)=O)[C@]5(CC)C=CCN6CC[C@]43[C@@H]65)C2)C1 [Vincristine Sulfate] | 0.94 |
| COc1ccc(Oc2cc(NCCC(F)(F)F)c3ncc(-c4ccc(C(=O)NC5CC5)c(C)c4)n3n2)c(F)c1F | 58.9 |
| C[C@]12CC[C@@H]3c4ccc(O)cc4CC[C@H]3[C@@H]1CCC2=O | 101 |
| CC(C)(NS(=O)(=O)c1ccc2c(Cl)cnc(N=C(N)N)c2c1)C(=O)O | 101 |
| CC(C(=O)O)C(=O)O [Methylmalonate] | 97 |
| CC(C)c1onc(-c2c(Cl)cccc2Cl)c1COc1ccc(/C=C/c2cccc(C(=O)O)c2)c(Cl)c1 | 95.5 |
| C/C1=C\CC[C@]23O[C@H]2[C@@H](OC3=O)c2c(C)coc2C1 | 117 |
| CN1C(N)=N[C@](C)(c2cc(NC(=O)c3ccc(F)cn3)ccc2F)CS1(=O)=O | 95.8 |
| CC(C)=CCC[C@@](C)(O)[C@H]1CC[C@@]2(C)[C@@H]1[C@H](O)C[C@@H]1[C@@]3(C)CC[C@H](O)C(C)(C)C3CC[C@]12C (stereo partly drawn) [(20R)-Protopanaxdiol] | 106 |
| COc1cccc2c1c(O)c(C(=O)N(C)c1ccc(C(F)(F)F)cc1)c(=O)n2C | 106 |
